# Tested on: CP286
# test.summary: qHTS profiling for inhibitors of Plasmodium falciparum proliferation (AID 504749); also: nearly all actives have a fitted effect of over 60% in size
# test.conditions: P. falciparum in erythrocytes, SYBR Green DNA, 72 h; series mostly up to 12.8 µM
Results filed as inconclusive are left out. Activity calls are given as the source filed them. Calls follow the shape of the dose curve; as a rule, active = well fitted inhibition curve with a large enough effect; inconclusive = small, poorly fitted or top-dose-only effect; inactive = flat fitted curve, though single readings scatter.
Outcome codes: YES (active), NO (inactive)

{"molecule": "C[C@@H](CCc1ccccc1)NC[C@H](O)c1ccc(O)c(C(N)=O)c1", "qualitative.label": "NO"}
{"molecule": "CC(C)N1CCN(c2ccc(OC[C@@H]3CO[C@@](Cn4cncn4)(c4ccc(Cl)cc4Cl)O3)cc2)CC1", "qualitative.label": "NO"}
{"molecule": "O=c1[nH]c(=O)n([C@@H]2C[C@H](O)[C@H](CO)O2)cc1I", "qualitative.label": "NO"}
{"molecule": "CC(C)(O/N=C(\\C(=O)N[C@@H]1C(=O)N2C(C(=O)[O-])=C(C[n+]3ccccc3)CS[C@@H]12)c1csc(N)n1)C(=O)O", "qualitative.label": "NO"}
{"molecule": "CC1(C)Oc2ccc(C#N)cc2[C@H](N2CCCC2=O)[C@H]1O", "qualitative.label": "NO"}
{"molecule": "CCN(CC)CCC[C@H](C)Nc1c2ccc(Cl)cc2nc2ccc(OC)cc12", "qualitative.label": "YES"}
{"molecule": "CN1[C@@H]2CC[C@H]1CC(OC(=O)[C@@H](O)c1ccccc1)C2 (stereo partly specified)", "qualitative.label": "NO"}
{"molecule": "COc1ccc(C[C@@H]2c3cc(OC)c(OC)cc3CC[N@+]2(C)CCC(=O)OCCCCCOC(=O)CC[N@@+]2(C)CCc3cc(OC)c(OC)cc3[C@H]2Cc2ccc(OC)c(OC)c2)cc1OC", "qualitative.label": "NO"}
{"molecule": "C[N+]1(C)CCC[C@@H](OC(=O)C(O)(c2ccccc2)c2ccccc2)C1", "qualitative.label": "NO"}
{"molecule": "O=C(O)/C=C\\c1ccc(Cn2ccnc2)cc1", "qualitative.label": "NO"}
{"molecule": "CC1(C)O[C@@H]2C[C@H]3[C@H]4C[C@H](F)C5=CC(=O)C=C[C@@]5(C)[C@@H]4[C@H](O)C[C@]3(C)[C@]2(C(=O)CO)O1", "qualitative.label": "NO"}
{"molecule": "C/C=C\\C(=O)N(CC)c1ccccc1C", "qualitative.label": "NO"}
{"molecule": "CCCN[C@@H](C)C(=O)Nc1ccccc1C", "qualitative.label": "NO"}
{"molecule": "Cc1cc(/C=C\\c2ccc3cc(N(C)C)ccc3[n+]2C)c(C)n1-c1ccccc1", "qualitative.label": "YES"}
{"molecule": "C[C@@H](CN(C)C)CN1c2ccccc2CCc2ccccc21", "qualitative.label": "NO"}
{"molecule": "CO/N=C(\\C(=O)N[C@@H]1C(=O)N2C(C(=O)O)=C(COC(C)=O)CS[C@@H]12)c1csc(N)n1", "qualitative.label": "NO"}
{"molecule": "CC(=O)O[C@@H](C)C[N+](C)(C)C", "qualitative.label": "NO"}
{"molecule": "NC(N)=NC[C@@H]1COC2(CCCCC2)O1", "qualitative.label": "NO"}
{"molecule": "O=C(Cc1cccs1)NC1C(=O)N2C(C(=O)[O-])=C(C[n+]3ccccc3)CSC12 (stereo unspecified)", "qualitative.label": "NO"}
{"molecule": "O=C(c1ccccc1)c1ccc2n1CC[C@H]2C(=O)O", "qualitative.label": "NO"}
{"molecule": "CC(=O)OCC1=C(C(=O)O)N2C(=O)[C@@H](NC(=O)CSc3ccncc3)[C@@H]2SC1", "qualitative.label": "NO"}
{"molecule": "CCCN(CCC)C(=O)[C@@H](CCC(=O)O)NC(=O)c1ccccc1", "qualitative.label": "NO"}
{"molecule": "CO/N=C(/C(=O)NC1C(=O)N2C(C(=O)O)=C(CSc3nc(=O)c(O)nn3C)CSC12)c1csc(N)n1 (stereo unspecified)", "qualitative.label": "NO"}
{"molecule": "CO[C@H]1C[C@@H](O[C@@H]2[C@H](C)[C@H](O[C@@H]3O[C@@H](C)C[C@@H](N(C)C)[C@@H]3O)[C@H](C)C[C@]3(CO3)C(=O)[C@H](C)[C@H](O)[C@H](C)[C@H](C)OC(=O)[C@@H]2C)O[C@@H](C)[C@H]1O", "qualitative.label": "NO"}
{"molecule": "N[C@@H](CO)C(=O)NNCc1ccc(O)c(O)c1O", "qualitative.label": "NO"}
{"molecule": "CCN1C(=O)N[C@@H](c2ccccc2)C1=O", "qualitative.label": "NO"}
{"molecule": "CCN(CC)CCC[C@H](C)Nc1ccnc2cc(Cl)ccc12", "qualitative.label": "YES"}
{"molecule": "CN[C@@H](CC(C)C)C(=O)N[C@@H]1C(=O)N[C@H](CC(N)=O)C(=O)N[C@@H]2C(=O)N[C@H]3C(=O)N[C@H](C(=O)N[C@H](C(=O)O)c4cc(O)cc(O)c4-c4cc3ccc4O)[C@H](O)c3ccc(c(Cl)c3)Oc3cc2cc(c3O[C@H]2O[C@@H](CO)[C@@H](O)[C@@H](O)[C@@H]2O[C@@H]2C[C@](C)(N)[C@H](O)[C@H](C)O2)Oc2ccc(cc2Cl)[C@@H]1O", "qualitative.label": "NO"}
{"molecule": "C[C@@H](C(=O)O)c1ccc(C(=O)c2cccs2)cc1", "qualitative.label": "NO"}
{"molecule": "CC1(C)S[C@@H]2[C@H](NC(=O)[C@H](C(=O)O)c3ccsc3)C(=O)N2[C@H]1C(=O)O", "qualitative.label": "NO"}
{"molecule": "C[n+]1ccccc1/C=N\\O", "qualitative.label": "NO"}
